# Test system: EB-DNA system (CT-DNA)
# RUN_DESCRIPTION: Competitive binding assay with ethidium bromide (EB) through fluorescence spectroscopy
# Parameters: species or system calf
# PARTICULARS: concentration corresponding to 50% binding; 10 µM CT-DNA, 2 µM EB
Can you tell me K50 (EB Displacement Assay) for the items I'm about to list?
One number for each entry, in µM.

CCn1cc(C(=O)[O][Y]([OH])[O]C(=O)c2cn(CC)c3cc4c(cc3c2=O)OCO4)c(=O)c2cc3c(cc21)OCO3.O [Y oxo, [Y(oxo)(OH)(H2O)]] :: 28.07

Hi team, please reply with K50 (EB Displacement Assay) for each item in this list.
1. CCn1cc(C(=O)O)c(=O)c2cc3c(cc21)OCO3 [oxo, reference compound]
2. CCn1cc(C(=O)[O][Sm]([OH])[O]C(=O)c2cn(CC)c3cc4c(cc3c2=O)OCO4)c(=O)c2cc3c(cc21)OCO3.O.O [Sm oxo, [Sm(oxo)(OH)(H2O)] · H2O]
3. CCn1cc(C(=O)[O][Eu]([OH])[O]C(=O)c2cn(CC)c3cc4c(cc3c2=O)OCO4)c(=O)c2cc3c(cc21)OCO3.O [Eu oxo, [Eu(oxo)(OH)(H2O)]]
4. CCn1cc(C(=O)[O][La]([OH])[O]C(=O)c2cn(CC)c3cc4c(cc3c2=O)OCO4)c(=O)c2cc3c(cc21)OCO3.O [La oxo, [La(oxo)(OH)(H2O)]]

42.07
41.55
40.15
37.05
